FYI, the data here is from patent US20240360238A1.

target system: T1, purified rhesus CD117 ectodomain (rhesus, UniProt F6V858 26-524)
T1 construct: extracellular domain; also called rhesus antigen
procedure details: BLI, purified IgG on sensor, soluble rhesus ectodomain; apparent monovalent
I'd appreciate it if you could supply kon values for the items below.
Give bare numbers, in M⁻¹ s⁻¹.

HC-21/LC-21 (Ab21) (antibody, IgG1, V domains shown, From rat immunization/hybridoma; purified IgG in BLI; also called 021) VH: QIQLVQSGPELKKPGESVKISCKASGYTFTDYAVYWVIQAPGKGLKWMGWINTYTGKPTYADDFKGRFVFSLETSASTANLQISNLKNEDTATYFCARGAGMTKDYVMDAWGRGVLVTVS VL: SYELIQPPSASVTLGNTVSLTCVGDELSKRYAQWYQQKPDKTIVSVIYKDSERPSDISDRFSGSSSGTTATLTIHGTLAEDEADYYCLSTYSDDNLPVFGGGTKLTVL
410000

Required: kon, one value per binder below.
1. HC-24/LC-24 (Ab24) (antibody, IgG1, V domains shown, From rat immunization/hybridoma; purified IgG in BLI; also called 024) VH: EVQLVESGGGLVQSGRSLKLSCAASGFTVSDYYMAWVRQAPTKGLEWVATINYDGSTTYHRDSVKGRFTISRDNAKSTLYLQMDSLRSEDTATYYCARHGDYGYHYGAYYFDYWGQGVMVTVSS VL: DIVLTQSPALAVSLGQRATISCRASQTVSLSGYNLIHWYQQRTGQQPKLLIYRASNLAPGIPARFSGSGSGTDFTLTISPVQSDDIATYYCQQSRESWTFGGGTNLEMK
2. HC-23/LC-23 (Ab23) (antibody, IgG1, V domains shown, From rat immunization/hybridoma; purified IgG in BLI; also called 023) VH: EVQLQQYGAELGKPGTSVRLSCKVSGYNIRNTYIHWVHQRPGEGLEWIGRIDPTNGNTISAEKFKSKATLTADTSSNTAYMQFSQLKSDDTAIYFCAMNYEGYADYWGQGVMVTVSS VL: DIQMTQSPSFLSASVGDRLTINCKASQNINKYLNWYQQKLGEAPKRLIFKTNSLQTGIPSRFSGSGSGTDYTLTISSLQPEDVATYFCFQYNIGFTFGAGTKLELK
3. HC-27/LC-27 (Ab27) (antibody, IgG1, V domains shown, From rat immunization/hybridoma; purified IgG in BLI; also called 027) VH: EVQLVESGGGLVQPGRSMKLSCKASGFTFSNYDMAWVRQAPTRGLEWVASISYDGITAYYRDSVKGRFTISRENAKSTLYLQLVSLRSEDTATYYCTTEGGYVYSGPHYFDYWGQGVMVTVSS VL: DIQMTQSPSSMSVSLGDTVTITCRASQDVGIFVNWFQQKPGRSPRRMIYRATNLADGVPSRFSGSRSGSDYSLTISSLESEDVADYHCLQYDEFPRTFGGGTKLELK
4. HC-22/LC-22 (Ab22) (antibody, IgG1, V domains shown, From rat immunization/hybridoma; purified IgG in BLI; also called 022) VH: QVQLKESGPGLVQPSQTLSLTCTVSGFSLTSYLVHWVRQPPGKTLEWVGLMWNDGDTSYNSALKSRLSISRDTSKSQVFLKMHSLQAEDTATYYCARESNLGFTYWGHGTLVTVSS VL: DIQMTQSPASLSASLEEIVTITCKASQGIDDDLSWYQQKPGKSPQLLIYDVTRLADGVPSRFSGSRSGTQYSLKISRPQVADSGIYYCLQSYSTPYTFGAGTKLELK

39700
280000
309000
1.74e+06

Return reported kon; argument: HC-28/LC-28 (Ab28) (antibody, IgG1, V domains shown, From rat immunization/hybridoma; purified IgG in BLI; also called 028) VH: EVQLQQYGAELGKPGTSVRLSCKVSGYKIRNTYIHWVNQRPGKGLEWIGRIDPANGNTIYAEKFKSKVTLTADTSSNTAYMQLSQLKSDDTALYFCAMNYEGYEDYWGQGVMVTVSS VL: DIQMTQSPSFLSASVGDSVTINCKASQNINKYLNWYQQKLGEAPKRLIHKTNSLQPGFPSRFSGSGSGTDYTLTISSLQPEDVAAYFCFQYNSGFTFGAGTKLELK
521000
